- Test system: KRAS G12C-dependent Ba/F3 cells
- PROTOCOL_DETAILS: Ba/F3 proliferation assay, KRAS G12C
- Assay type: cell-based
- CONDITION_SET: Mus musculus, BaF3, 72 h, AlamarBlue
MEASUREMENT_TYPE: pIC50
pIC50 here is simply -log10 of the concentration when that concentration is written in mol/L.

Inquiry: For C[C@H](Oc1cc(-n2ccc(-c3ccccn3)n2)nc(-c2noc3c2CCC[C@@]32CCCc3sc(N)c(C#N)c32)n1)[C@@H]1CCCN1C [II-119] , write its pIC50.
Reply text: 8.10

Inquiry: For C[C@H](Oc1cc(N2CCNC[C@@]23CCOC3)nc(-c2noc3c2CCC[C@@]32CCCc3sc(N)c(C#N)c32)n1)[C@@H]1CCCN1C [II-51] , write its pIC50.
Reply text: 6.50

Inquiry: For CC(=O)N1CC=C(c2cc(O[C@@H](C)[C@@H]3CCCN3C)nc(-c3noc4c3CCC[C@@]43CCCc4sc(N)c(C#N)c43)n2)CC1 [II-81] , write its pIC50.
Reply text: 7.31

Inquiry: For Cc1ccc(-c2cc(O[C@@H](C)[C@@H]3CCCN3C)nc(-c3onc4c3CCC[C@@]43CCCc4sc(N)c(C#N)c43)n2)cn1 [I-28] , write its pIC50.
Reply text: 7.17

Inquiry: For C[C@H](Oc1cc(-c2ccn(C)n2)nc(-c2noc3c2CCC[C@@]32CCCc3sc(N)c(C#N)c32)n1)[C@@H]1C[C@@H](F)CN1C [II-27] , write its pIC50.
Reply text: 7.74

Inquiry: For Cc1nc(-c2cc(O[C@@H](C)[C@@H]3CCCN3C)nc(-c3onc4c3CCC[C@@]43CCCc4sc(N)c(C#N)c43)n2)cs1 [I-24] , write its pIC50.
Reply text: 8.05
